Catalogue of molecules with associated growth
# Test system: IGROV1 ovarian
# ASSAY METHOD TEXT: NCI-60 one-dose screen, 48 h (100 = growth as untreated, 0 = no growth, -100 = all killed)
# RUN PARAMETERS: 10 µM unless noted
This is part of a sample that, as a whole, favours compounds with a hit. Of some 83,000 tested, about 20% had one in any assay.
Answer format: numeric, % implied, no suffix.

Please review the following examples before continuing.
For CC1(c2cc3cc(Br)ccc3oc2=O)NC(=O)c2c(/C=C/C(=O)OC3CC4CCC3(C)C4(C)C)cccc2N1 (centres undefined) the molecule record lists growth as 92.6

Measured growth of CC12CC[C@@H]3[C@]4(C)COC(c5cn[nH]c5-c5cccc(Br)c5)O[C@@H]4CC[C@@]3(C)[C@@H]1CC(C1=CCOC1=O)O2 (some centres undefined) : 48.7

O=C(Cn1c(/C=C/c2ccccc2)nc2ccccc2c1=O)Nc1ccc(Cl)cc1 has a reported growth of 67.7

Further cases:
Noted for Cc1cccc(-c2nc(Nc3cccc(S(N)(=O)=O)c3)c3ccccc3n2)c1 : its growth reads 66.1

All values here come from PubChem BioAssay (NCI).
